# Tested on: Plasmodium falciparum NF54
# PROTOCOL: growth inhibition relative to untreated control; higher = more inhibition
# APPLIED CONDITIONS: 5 µM; MM + chorismate end-products (CM screening medium); 72 h
growth inhibition values by entry
I only need the number, in %, no unit after it.

Sample records with growth inhibition:
SUBSTANCE SMILES: Cc1nn(C)c(C)c1NS(=O)(=O)c1c(Cl)cc(-c2ccnc(N3CCNCC3)c2)cc1Cl
METRIC: growth inhibition
MEASURED NUMBER: 84.1
--
SUBSTANCE SMILES: O=C1O[C@@H](CO)CN1c1cc(F)c(C2=CCN(Cc3ccccc3)CC2)c(F)c1
METRIC: growth inhibition
MEASURED NUMBER: 45
--
SUBSTANCE SMILES: Cc1cccc(C(=O)Nc2ccnc(N(C)C3CCN(CC(C)C)CC3)c2)c1
METRIC: growth inhibition
MEASURED NUMBER: 94.8

Attention now shifts to the item below.
Reported growth inhibition ( `Nc1c2c(nc3sc4c(c13)CCCC4)CCCC2` ) = 52.3
